A set of molecules tested on Adenosine receptor A1 (Rattus norvegicus), with measured Ki:

# SAMPLE_SMILES, UNIT, RESULT_OPERATOR, Ki
measured = [
    ("CCCn1c(=O)c2c(nc3n2CCCN3c2ccc(OCCN(C)C)cc2)n(CCC)c1=O", "nM", "=", 180),
    ("Cn1c(=O)c2c(nc3n2CCCN3CCc2ccc(OCCN3CCCCC3)cc2)n(C)c1=O", "nM", ">", 1000),
    ("CN(C)CCOc1ccc(CCN2CCn3c(nc4c3c(=O)n(C)c(=O)n4C)C2)cc1", "nM", "=", 1370),
    ("Cn1c(=O)c2c(nc3n2CCCN3c2ccc(OCCN3CCOCC3)cc2)n(C)c1=O", "nM", ">", 1000),
    ("Cn1c(=O)c2c(nc3n2CCCN3c2ccc(OCCN3CCCCC3)cc2)n(C)c1=O", "nM", ">", 1000),
]
